Recorded values, source PubChem BioAssay (NCI).

- Test system: NCI-H460 lung
- MEASUREMENT_DESCRIPTION: NCI-60 one-dose screen, 48 h (100 = growth as untreated, 0 = no growth, -100 = all killed)
- TEST_SETTINGS: 10 µM unless noted
This is part of a sample that, as a whole, favours compounds with a hit. Of some 83,000 tested, about 20% had one in any assay.
Recorded growth values for a group of molecules are listed next.
MEASURE_NAME: growth (%)

- MOLECULE: "COc1cc(C2CC(=O)Nc3n[nH]c(-c4ccccc4)c32)cc(OC)c1OC (stereo not drawn)"
  TEST_VALUE: 67.5
- MOLECULE: "O=[N+]([O-])c1ccc(-c2cc3c(Nc4ccc(Cl)c(C(F)(F)F)c4)ncnc3s2)cc1"
  TEST_VALUE: 4.13
- MOLECULE: "C[C@@H]1CC[C@@H]2[C@@H]1[C@H](OC(=O)/C=C/c1ccccc1)[C@]1(C3CCCCC3)C[C@@H](NC(=O)CO)[C@@]2(C)O1"
  TEST_VALUE: 94.5
- MOLECULE: "[2H]c1nc(Nc2ncc(F)c(-c3cc(F)c4nc(C)n(C(C)C)c4c3)n2)c([2H])c([2H])c1CN1CCN(C([2H])([2H])C([2H])([2H])[2H])CC1"
  TEST_VALUE: 53.1
- MOLECULE: "COc1ccc(-c2nc3ncccn3c2/C=C/C(=O)c2cc(OC)c(OC)c(OC)c2)cc1"
  TEST_VALUE: -79.4
- MOLECULE: "COc1ccc(-c2cn(-c3cccc(C(=O)/C=C/c4cc(OC)c(OC)c(OC)c4)c3)c(=O)[nH]2)cc1"
  TEST_VALUE: -44.1
- MOLECULE: "COc1ccc(/C=C2\\COc3ccc(O)c(O)c3C2=O)c(OC)c1"
  TEST_VALUE: 72.4
- MOLECULE: "CN(C)CCN1C(=O)c2cccc3c(-c4ccc(-c5nc6c7ccccc7c7ccccc7c6[nH]5)cc4)ccc(c23)C1=O"
  TEST_VALUE: 111

====

- Tested on: T-47D breast
- MEASUREMENT_DESCRIPTION: NCI-60 one-dose screen, 48 h
- TEST_SETTINGS: 10 µM unless noted
The panel holds about 83,000 compounds, 20% with a hit somewhere; the sample as a whole holds those more often. The source made the active and inactive calls. How the source made its calls: active means growth percent below 10; inactive means the rest.
Labels: YES (active), NO (inactive)

- COMPOUND: "CCNCCNc1cc(-c2cccc(C(F)(F)F)c2)c(C#N)c2nc3ccccc3n12"
  CLASS: "YES"
- COMPOUND: "O=C1CSC(c2ccccc2O)N1c1nnc(Cn2cnnc2)o1 (stereo not drawn)"
  CLASS: "NO"
- COMPOUND: "CCCCN(Cc1ccc(C(=O)NO)cc1)C(=O)Nc1ccc(OCCCCCCCCCn2cc(CCCCC(=O)N[C@H](C(=O)N3C[C@H](O)C[C@H]3C(=O)NCc3ccc(-c4scnc4C)cc3)C(C)(C)C)nn2)cc1"
  CLASS: "NO"
- COMPOUND: "Cc1ccc(S(=O)(=O)N(CC[C@@H]2C[C@H]2c2cc3ccccc3o2)C(=O)NC2CCCCC2)cc1"
  CLASS: "NO"
- COMPOUND: "NC(=S)N/N=C/C(=O)O"
  CLASS: "NO"
- COMPOUND: "C/C(=N\\NC(N)=S)c1nc2ccc(Cl)cc2[nH]1"
  CLASS: "NO"
- COMPOUND: "N#Cc1c(NC(=O)c2cccc(C(F)(F)F)c2)sc2c1CCC(=O)C2"
  CLASS: "YES"
- COMPOUND: "CCOC(=O)c1sc2ccc(NCc3nc[nH]c3C)cc2c1NC(=O)c1cc(OC)c(OC)c(OC)c1"
  CLASS: "NO"
- COMPOUND: "O=C(NCOC(O)C(Cl)(Cl)Cl)NCOC(O)C(Cl)(Cl)Cl (stereo not drawn)"
  CLASS: "NO"
- COMPOUND: "Cc1cc(-c2noc(C(F)(F)F)n2)ccc1N1CCN(c2cc(C(=O)N(C)C)no2)CC1"
  CLASS: "NO"
- COMPOUND: "Cc1nn(Cc2ccccc2)cc1C(=O)Nc1sc2c(c1C(N)=O)CCC(=O)C2"
  CLASS: "NO"
- COMPOUND: "CCCCOC(=O)c1ccc(NC(=O)C(C)N2CCOCC2)cc1 (stereo not drawn)"
  CLASS: "NO"
- COMPOUND: "COc1cc(/C=C/C(=O)c2ccc(Nc3nc(Nc4ccccc4)nc(Nc4ccc(Cl)cc4)n3)cc2)cc(OC)c1OC"
  CLASS: "NO"
- COMPOUND: "O=C(CCc1nc(-c2cccc(Cl)c2)no1)Nc1ccccn1"
  CLASS: "NO"
- COMPOUND: "CCCCCCNCc1cc(C(C)(C)C)cc(CNCCCCCC)c1O"
  CLASS: "YES"
- COMPOUND: "O=C1Nc2ccccc2SC1c1ccccc1Cl (stereo not drawn)"
  CLASS: "NO"
- COMPOUND: "C=C(C)[C@@H]1CC[C@@]2(C(=O)O)CC[C@]3(C)C(CCC4[C@@]5(C)CCC(OS(=O)(=O)c6ccccc6)C(C)(C)C5CC[C@]43C)C12 (stereo partly drawn)"
  CLASS: "NO"
- COMPOUND: "CN(C)c1ccc(C#Cc2c(F)cccc2Cl)cc1"
  CLASS: "NO"
- COMPOUND: "CCCCNCC(=O)Nc1ccc(C(=O)OCC)cc1"
  CLASS: "NO"
- COMPOUND: "NC(=S)c1csc(CCNC(=O)c2ccccc2)n1"
  CLASS: "NO"
- COMPOUND: "N#Cc1c(N)n2c(nc1=Nc1ccc(Cl)cc1)sc1cc(Cl)ccc12"
  CLASS: "NO"
- COMPOUND: "Fc1ccc(Nc2nc(Nc3ccc(-c4nc5ccccc5[nH]4)cc3)c3cn[nH]c3n2)cc1"
  CLASS: "NO"
- COMPOUND: "CCCCCCNC(=O)c1cc(NCc2cc(O)ccc2O)ccc1O"
  CLASS: "NO"
- COMPOUND: "Cc1c(C)c2c(c(C)c1NC(=O)/C=C\\C(=O)O)CCC(C)(CCCC(C)CCCC(C)CCCC(C)C)O2 (stereo not drawn)"
  CLASS: "NO"
- COMPOUND: "O=c1oc2ccc(Cl)cc2cc1-c1cs/c(=N/N=C\\c2ccc(Cl)cc2)n1/N=C/c1ccc(Cl)cc1"
  CLASS: "NO"
- COMPOUND: "CCn1c(Sc2nnc(NC(=O)CCN3CCCC3)s2)nc2c1c(=O)n(C)c(=O)n2C"
  CLASS: "NO"
- COMPOUND: "OC(COc1cccc2ccccc12)CN1CCN(c2ccccc2)CC1 (stereo not drawn)"
  CLASS: "NO"
- COMPOUND: "O[C@H]1CO[C@H]2[C@@H]1OC[C@@H]2Oc1ccc(Nc2ccnc(Nc3ccc(O[C@H]4CO[C@H]5[C@@H]4OC[C@@H]5O)c(Cl)c3)n2)cc1Cl"
  CLASS: "YES"
- COMPOUND: "CCOC(=O)N1CCc2c(sc3c2C(=O)N[C@H](c2ccc(OC)cc2)N3)C1"
  CLASS: "NO"
- COMPOUND: "C[C@@H]1CC[C@@H]2[C@@H]1[C@H](OC(=O)/C=C/c1ccccc1)[C@]1(C3CCCCC3)C[C@@H](NC(=O)CO)[C@@]2(C)O1"
  CLASS: "NO"
- COMPOUND: "Cc1nc(-c2ccccc2)cc2c(O)c(C(=O)N/N=C/c3ccc(N(C)C)cc3)[nH]c(=O)c12"
  CLASS: "NO"
- COMPOUND: "CCCCCCCCn1cc(C2=C(c3coc4ccc(OC)cc34)C(=O)NC2=O)c2ccccc21"
  CLASS: "NO"
- COMPOUND: "CCN(CC)S(=O)(=O)c1ccc(O)c(NC(=O)c2[nH]c(C)c(C(C)=O)c2CCc2ccc(Cl)cc2)c1"
  CLASS: "NO"
- COMPOUND: "Clc1ccc(/C=N\\N=c2\\scc(-c3ccc(Cl)cc3)n2/N=C/c2ccc(Cl)cc2)cc1"
  CLASS: "NO"
- COMPOUND: "N=C(N)c1ccc(-c2ccc(-c3ccc(Cl)c(Cl)c3)o2)nc1"
  CLASS: "NO"
- COMPOUND: "COc1cc2c(cc1OC)-c1ccc3cc4c(cc3c1N(CCN1CCCC1)C2)OCO4"
  CLASS: "YES"
- COMPOUND: "CCN(CC)CCCNC(=O)c1ccc(N)cc1O"
  CLASS: "NO"
- COMPOUND: "COC(=O)CCCNC(=O)C(=O)c1c(O)c(O)c(C(C)C)c2cc(C)c(-c3c(C)cc4c(C(C)C)c(O)c(O)c(C(=O)C(=O)NCCCC(=O)OC)c4c3O)c(O)c12"
  CLASS: "YES"
